Taken from PubChem BioAssay AID540333.

# Method: antivirals protecting cells from dengue CPE – CPE readout, HTS (AID 540333)
# Reported conditions: Dengue virus CPE inhibition in host cells, at 20 µM; active compounds read high
The campaign covered roughly 10,000 compounds. About 320 (3.2%) were called active. For the sample, actives were picked, then their nearest neighbours and some compounds at random.
Readout: CPE inhibition

[
  {
    "Compound": "S=C1NCCOCCNC(=S)NCCOCCOCCOCCN1",
    "CPE inhibition": "inactive"
  },
  {
    "Compound": "O=C(CSc1ccc(Cl)cc1)Nc1ccc(-c2nc3ccccc3[nH]2)cc1",
    "CPE inhibition": "1% (inactive)"
  },
  {
    "Compound": "CCc1ccc(OC(C)c2nnc(SCC(=O)Nc3ncccc3C)n2C)cc1 (stereo not drawn)",
    "CPE inhibition": "0.355% (inactive)"
  },
  {
    "Compound": "Cc1ccc(-c2nc3ccccc3c(=O)n2NC(=O)COc2ccccc2)cc1",
    "CPE inhibition": "0.37% (inactive)"
  },
  {
    "Compound": "C/C(=N\\NC(=S)NCCc1ccccc1)c1ccc(Cl)cc1",
    "CPE inhibition": "1.61% (inactive)"
  },
  {
    "Compound": "CC1CC(C)CN(C(=O)C(NS(=O)(=O)c2ccc(Br)s2)c2ccccc2)C1 (stereo not drawn)",
    "CPE inhibition": "24.6% (active)"
  },
  {
    "Compound": "COc1ccc(-n2c(C)cc(/C=N/Nc3nc(N4CCOCC4)nc(N4CCOCC4)n3)c2C)cc1",
    "CPE inhibition": "inactive"
  },
  {
    "Compound": "CCO[C@H]1OC(C(N)=O)=C[C@@H](C(C)(C)C)[C@@H]1CCCO",
    "CPE inhibition": "inactive"
  }
]

For every record below, what is its CPE inhibition?
1. O=C(O)CCC(=O)Nc1ccccc1C(=O)NCc1ccccc1
2. CCOc1ccc(NS(=O)(=O)c2cc(NC(=O)CCS(=O)(=O)c3ccc(C)cc3)ccc2OC)cc1
3. Cc1cc(C(=O)OC(C(=O)Nc2ccc(C)c(Cl)c2)c2ccccc2)c(C)o1 (stereo not drawn)
4. O=C1S/C(=C\c2ccccc2)C(=O)N1CC(O)Cn1c2ccccc2c2ccccc21 (stereo not drawn)
5. Cc1ccc(NC(=O)C(OC(=O)c2ccc(F)cc2)c2ccccc2)cc1Cl (stereo not drawn)

output:
["1.71% (inactive)", "0.21% (inactive)", "14.6% (active)", "inactive", "1.61% (inactive)"]
